Listed here are binders together with their documented Kd.
# TARGET SYSTEM: T1, AFP158/HLA-A*02:01 complex (human)
# T1 construct: flowed over the chip in SPR; also called AFP158 pro
# MEASUREMENT NOTES: SPR, scFv captured, pMHC in flow;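 further: complex injected at several concentrations over crude scFv, association then running-buffer dissociation, KD estimated from kinetic on- and off-rate constants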
QUANTITY KIND: Kd (nM)

- BINDER: "LY34M (scFv, AS170036 VL1VH1 scFv mutein) scFv: QSALTQPRSVSGSPGQSVTISCAGTSSDVGSENMVSWYQQHPGKAPKLMIYQVNKRASGVPDRFSGSKSGNTASLTISGLQAEDEADYYCASYRSSDHNIVFGGGTKLTVLGGGGSGGGGSGGGGSEVQLVESGGGLVQPGGSLRLSCAASGFTFSSYAMSWVRQAPGKGLEWVSTINSGTGSPYYADSVKGRFTISRDNSKNTLYLQMNSLRAEDTAVYYCAKNFFDGSWFLGPPAMDYWGQGTLVTVSSHHHHHH"
  QUANTITY KIND: "Kd"
  VALUE MEASURED: 1100
- BINDER: "LD97K (scFv, AS170036 VL1VH1 scFv mutein) scFv: QSALTQPRSVSGSPGQSVTISCAGTSSDVGSENYVSWYQQHPGKAPKLMIYQVNKRASGVPDRFSGSKSGNTASLTISGLQAEDEADYYCASYRSSKHNIVFGGGTKLTVLGGGGSGGGGSGGGGSEVQLVESGGGLVQPGGSLRLSCAASGFTFSSYAMSWVRQAPGKGLEWVSTINSGTGSPYYADSVKGRFTISRDNSKNTLYLQMNSLRAEDTAVYYCAKNFFDGSWFLGPPAMDYWGQGTLVTVSSHHHHHH"
  QUANTITY KIND: "Kd"
  VALUE MEASURED: 410
- BINDER: "LE32S (scFv, AS170036 VL1VH1 scFv mutein) scFv: QSALTQPRSVSGSPGQSVTISCAGTSSDVGSSNYVSWYQQHPGKAPKLMIYQVNKRASGVPDRFSGSKSGNTASLTISGLQAEDEADYYCASYRSSDHNIVFGGGTKLTVLGGGGSGGGGSGGGGSEVQLVESGGGLVQPGGSLRLSCAASGFTFSSYAMSWVRQAPGKGLEWVSTINSGTGSPYYADSVKGRFTISRDNSKNTLYLQMNSLRAEDTAVYYCAKNFFDGSWFLGPPAMDYWGQGTLVTVSSHHHHHH"
  QUANTITY KIND: "Kd"
  VALUE MEASURED: 500
